Origin of measurements: patent US20030091584A1

We begin with a simple list: items and their reported koff.
Molecular target: RSV F protein (immobilized on the BIAcore sensor chip) (respiratory syncytial virus)
Assay: BIAcore, immobilized F protein;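 also: fab fragments as analytes binding F protein coupled to the chip via EDC/NHS chemistry, with blank surface signal subtracted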
outcome measure: koff (s⁻¹)

binder="Y10H6 (Fab fragment) (Fab, V domains shown) VH: QVTLRESGPALVKPTQTLTLTCTFSGFSLSTAGMSVGWIRQPPGKALEWLADIWWDDKKDYNPSLKSRLTISKDTSKNQVVLKVTNMDPADTATYYCARDMIFNWYFDVWGAGTTVTVSS VL: DIQMTQSPSTLSASVGDRVTITCSASSSVGYMHWYQQKPGKAPKLLIYDTRYLSSGVPSRFSGSGSGTEFTLTISSLQPDDFATYYCFQGSGYPFTFGGGTKLEIK" reported_measurement=0.000462
binder="M3H9 (Fab fragment) (Fab, V domains shown) VH: QVTLRESGPALVKPTQTLTLTCTFSGFSLSTAGMSVGWIRQPPGKALEWLADIWWDDKKDYNPSLKSRLTISKDTSKNQVVLKVTNMDPADTATYYCARDMIFNWYFDVWGAGTTVTVSS VL: DIQMTQSPSTLSASVGDRVTITCSASSSVGYMHWYQQKPGKAPKLLIYDTYKQTSGVPSRFSGSGSGTEFTLTISSLQPDDFATYYCFQGSGYPFTFGGGTKLEIK" reported_measurement=0.000338
binder="A1e9 (Fab fragment) (Fab, V domains shown, Fab; also called *Ale9) VH: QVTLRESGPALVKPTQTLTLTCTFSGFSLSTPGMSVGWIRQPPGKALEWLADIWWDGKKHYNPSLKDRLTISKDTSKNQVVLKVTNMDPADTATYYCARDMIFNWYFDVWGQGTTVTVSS VL: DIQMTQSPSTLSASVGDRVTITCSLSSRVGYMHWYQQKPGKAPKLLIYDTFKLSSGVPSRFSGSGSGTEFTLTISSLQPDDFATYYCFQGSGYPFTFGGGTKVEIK" reported_measurement=0.000453
